- Test summary: Noncompartmental pharmacokinetic analysis of plasma concentrations after single oral dose of artefenomel and DSM265 in combination
- Format: in vivo, human
- Run parameters: human, plasma, oral, cohort 1 (n = 8), 200 mg artefenomel plus 100 mg DSM265; read-out: Vz/F, range
Give Vd/F for every item shown.

Notebook: c1cc([C@H]2CC[C@]3(CC2)OO[C@]2(O3)C3CC4CC(C3)CC2C4)ccc1OCCN1CCOCC1 , Vd/F read as 4810 to 16000 L

Consider now this further compound.
Notebook: Cc1cc(Nc2ccc(S(F)(F)(F)(F)F)cc2)n2nc(C(C)(F)F)nc2n1 , Vd/F read as 22 to 42 L

---

- Test summary: Noncompartmental pharmacokinetic analysis of plasma concentrations after single oral dose of artefenomel and DSM265 in combination
- Assay type: in vivo, human
- Run parameters: human, plasma, oral, cohort 1 (n = 8), 200 mg artefenomel plus 100 mg DSM265; read-out: t1/2 (elimination half-life), geometric mean (converted)
Test readout: half-life (days)
Numbers only, in days.

Notebook: Cc1cc(Nc2ccc(S(F)(F)(F)(F)F)cc2)n2nc(C(C)(F)F)nc2n1 [DSM265] , half-life read as 4.17
